assay type: in vivo, Male Sprague-Dawley (SD) rats; conditions: male, Sprague-Dawley, rat, plasma, po, 6.8 g/kg
Endpoint: Cmax

COc1ccc2c(c1O)-c1c(O)c(OC)cc3c1[C@H](C2)[N+](C)(C)CC3	40.6 ng/mL

Moving on to another molecule below.
Recorded result, COc1cc2c(cc1O)C(Cc1ccc(O)cc1)NCC2 (centres unmarked) , Cmax: 1.98 ng/mL

----------
Measured half-life of individual entries
type: in vivo, Male Sprague-Dawley (SD) rats; conditions: male, Sprague-Dawley, rat, plasma, po, 6.8 g/kg
Numeric answer only, unit h assumed.

COc1cc2c(cc1O)C(Cc1ccc(O)cc1)NCC2 (centres unmarked) [Coclaurine, coclaurine]	0.45

Shifting focus to the compound that follows.
Form field half-life, entry COc1ccc2c(c1O)-c1c(O)c(OC)cc3c1[C@H](C2)[N+](C)(C)CC3 [Magnoflorine, magnoflorine] : 3.17

----------
type: in vivo, Male Sprague-Dawley (SD) rats; settings: male, Sprague-Dawley, rat, plasma, po, 6.8 g/kg
Endpoint: Tmax (min)
Provide the reading as a plain figure in min.

COc1ccc2c(c1O)-c1c(O)c(OC)cc3c1[C@H](C2)[N+](C)(C)CC3	12

Proceed to the following item.
Tmax reading for COc1cc2c(cc1O)C(Cc1ccc(O)cc1)NCC2 (centres unmarked) : 13.8
